Where do these numbers come from? They come from the kinase profiling compilation of Christmann-Franck et al. (2016).

Target: STK10 (human) (UniProt O94804)
Sequence (O94804 whole entry, looked up): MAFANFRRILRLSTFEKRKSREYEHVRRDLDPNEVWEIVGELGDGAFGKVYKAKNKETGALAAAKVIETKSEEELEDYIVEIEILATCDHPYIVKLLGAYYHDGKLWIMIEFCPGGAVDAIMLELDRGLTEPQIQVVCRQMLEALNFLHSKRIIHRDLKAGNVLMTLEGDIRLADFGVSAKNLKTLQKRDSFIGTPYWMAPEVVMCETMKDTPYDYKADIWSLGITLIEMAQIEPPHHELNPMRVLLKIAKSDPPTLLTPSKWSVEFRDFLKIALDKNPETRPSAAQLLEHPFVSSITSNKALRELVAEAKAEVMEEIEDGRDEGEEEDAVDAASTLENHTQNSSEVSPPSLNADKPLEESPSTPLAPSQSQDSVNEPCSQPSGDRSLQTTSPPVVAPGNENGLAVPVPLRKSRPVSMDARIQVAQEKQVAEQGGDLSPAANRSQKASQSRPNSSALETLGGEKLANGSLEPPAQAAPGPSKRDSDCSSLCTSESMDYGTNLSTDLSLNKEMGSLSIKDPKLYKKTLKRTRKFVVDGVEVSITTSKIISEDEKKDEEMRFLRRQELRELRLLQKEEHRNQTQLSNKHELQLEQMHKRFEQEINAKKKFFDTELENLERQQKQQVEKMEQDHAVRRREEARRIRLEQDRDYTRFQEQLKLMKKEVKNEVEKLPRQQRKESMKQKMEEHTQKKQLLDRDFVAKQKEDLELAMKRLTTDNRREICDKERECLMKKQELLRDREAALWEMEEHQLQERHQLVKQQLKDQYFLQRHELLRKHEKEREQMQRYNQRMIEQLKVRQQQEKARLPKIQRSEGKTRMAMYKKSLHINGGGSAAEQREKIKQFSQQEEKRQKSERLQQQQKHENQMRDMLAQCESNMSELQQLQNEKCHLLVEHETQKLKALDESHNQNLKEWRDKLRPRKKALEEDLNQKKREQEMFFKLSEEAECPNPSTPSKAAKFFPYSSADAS
Experiment: radiometric filter-binding kinase assay, Kinase HotSpot
Settings: compound 0.5 µM; ATP 10 µM
Overview of reported residual activity across a group of molecules:
// note: answer is a bare numeric in %

Exercise: State the recorded residual activity for this entry: `Cc1ccc(Nc2nccc(N(C)c3ccc4c(C)n(C)nc4c3)n2)cc1S(N)(=O)=O`
Key: 50.1

Exercise: Request: `Nc1cccc(-c2cc3c(Oc4cccc(O)c4)ncnc3[nH]2)c1`
Key: 45.8

Exercise: One more molecule: `Oc1cccc(-c2nc(N3CCOCC3)c3oc4ncccc4c3n2)c1`
Key: 92.1

Exercise: Try this molecule too: `Cc1[nH]c(/C=C2\C(=O)Nc3ccc(S(=O)(=O)N(C)c4cccc(Cl)c4)cc32)c(C)c1C(=O)N1CCN(C)CC1`
Key: 9.05

Exercise: # iterate: `COc1ccc2c(c[n+](C)c3c4cc5c(cc4ccc23)OCO5)c1OC`
Key: 92.7

###

Molecular target: PRKX (human) (UniProt P51817)
Sequence (P51817 whole entry, looked up): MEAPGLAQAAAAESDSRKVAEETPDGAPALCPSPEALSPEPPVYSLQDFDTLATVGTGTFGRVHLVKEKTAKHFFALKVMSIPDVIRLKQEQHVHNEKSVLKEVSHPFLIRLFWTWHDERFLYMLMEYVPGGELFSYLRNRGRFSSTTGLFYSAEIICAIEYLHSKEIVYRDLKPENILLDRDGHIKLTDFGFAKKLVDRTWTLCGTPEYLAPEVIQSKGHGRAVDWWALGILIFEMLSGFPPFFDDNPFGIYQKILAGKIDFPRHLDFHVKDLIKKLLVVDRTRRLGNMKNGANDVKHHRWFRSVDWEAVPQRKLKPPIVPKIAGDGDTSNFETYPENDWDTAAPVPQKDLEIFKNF
Experiment: radiometric filter-binding kinase assay, Kinase HotSpot
Conditions: compound 0.5 µM; ATP 10 µM
Measured residual activity values are reported for all entries that follow.
Just so you know, I need the unit written after the number.

1. CCCC(=O)Oc1ccc2[nH]c(C(=O)c3cc4ccccc4[nH]3)cc2c1 = 96.1%

Exercise: // query residual activity value for entry `CCN(CC)CCNC(=O)c1c(C)[nH]c(/C=C2\C(=O)Nc3ccc(Cl)cc32)c1C`
Key: 83.9%

Exercise: Can you check `O=C1NC(=O)c2c1c1c3ccccc3n3c1c1c2c2ccccc2n1C1CCC3O1` next?
Key: 17.5%

Exercise: Next entry: `Oc1cccc(-c2nc(N3CCOCC3)c3oc4ncccc4c3n2)c1`
Key: 96.2%

Exercise: Entry `CC(=O)c1ccc(N2CCOCC2)cc1O` please
Key: 105%

Exercise: Same thing, different compound: `Nc1ccc2ncnc(NCCc3ccc(Oc4ccccc4)cc3)c2c1`
Key: 104%

Exercise: Again, but for `CC(C)N(CCC(=O)c1ccc2ccccc2c1)Cc1ccccc1`
Key: 99.6%

Exercise: Do the same for CO[C@H]1CC2CC[C@@H](C)[C@@](O)(O2)C(=O)C(=O)N2CCCC[C@H]2C(=O)OC([C@H](C)C[C@@H]2CC[C@@H](O)[C@H](OC)C2)CC(=O)[C@H](C)/C=C(\C)[C@@H](O)[C@@H](OC)C(=O)[C@H](C)C[C@H](C)/C=C/C=C/C=C/1C (some centres undefined) please
Key: 95.6%

Exercise: Same again, this time with `CNc1cc2c(Nc3cccc(Br)c3)ncnc2cn1`
Key: 97.1%

###

Biological target: FLT3 (human) (UniProt P36888)
Sequence (P36888 whole entry, looked up): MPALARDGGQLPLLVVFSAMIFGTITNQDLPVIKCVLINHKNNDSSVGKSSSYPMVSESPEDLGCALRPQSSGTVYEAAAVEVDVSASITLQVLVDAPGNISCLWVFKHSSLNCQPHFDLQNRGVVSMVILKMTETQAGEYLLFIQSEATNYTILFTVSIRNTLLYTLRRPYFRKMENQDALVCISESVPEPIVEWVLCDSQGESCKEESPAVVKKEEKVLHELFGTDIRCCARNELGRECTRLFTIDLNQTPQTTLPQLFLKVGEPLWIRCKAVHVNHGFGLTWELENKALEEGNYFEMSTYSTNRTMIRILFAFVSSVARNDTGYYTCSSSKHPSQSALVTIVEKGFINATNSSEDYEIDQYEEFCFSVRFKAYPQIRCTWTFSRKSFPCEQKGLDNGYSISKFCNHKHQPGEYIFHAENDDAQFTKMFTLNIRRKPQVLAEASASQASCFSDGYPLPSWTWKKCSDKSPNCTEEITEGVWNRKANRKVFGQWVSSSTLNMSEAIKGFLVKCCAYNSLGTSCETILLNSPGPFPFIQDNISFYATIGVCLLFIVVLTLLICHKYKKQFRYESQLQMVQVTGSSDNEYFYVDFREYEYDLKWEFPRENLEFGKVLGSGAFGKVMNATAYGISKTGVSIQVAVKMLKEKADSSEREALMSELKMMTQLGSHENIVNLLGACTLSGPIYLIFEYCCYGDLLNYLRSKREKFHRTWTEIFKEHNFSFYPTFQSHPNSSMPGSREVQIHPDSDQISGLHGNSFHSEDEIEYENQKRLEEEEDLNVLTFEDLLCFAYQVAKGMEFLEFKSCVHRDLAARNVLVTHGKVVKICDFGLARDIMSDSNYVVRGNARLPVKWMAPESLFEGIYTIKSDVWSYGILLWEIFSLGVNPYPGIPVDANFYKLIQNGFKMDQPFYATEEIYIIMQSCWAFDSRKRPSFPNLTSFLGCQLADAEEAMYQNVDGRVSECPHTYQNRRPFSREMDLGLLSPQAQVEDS
Assay: radiometric filter-binding kinase assay, Kinase HotSpot
Details: compound 0.5 µM; ATP 10 µM
READOUT: residual activity
I'd appreciate it if you wrote the number followed by its unit.

1) CNc1cc2c(Nc3cccc(Br)c3)ncnc2cn1 = 71.2%
2) Oc1cccc(-c2nc(N3CCOCC3)c3oc4ncccc4c3n2)c1 = 87.1%
3) COc1cc2ncnc(Nc3cccc(Cl)c3)c2cc1OC = 37.6%
4) CNC(=O)c1cc(Oc2ccc(NC(=O)Nc3ccc(Cl)c(C(F)(F)F)c3)cc2)ccn1 = 9.22%
5) Nc1ccc2ncnc(NCCc3ccc(Oc4ccccc4)cc3)c2c1 = 103%

Exercise: Entry `O=C1NC(=O)c2c1c1c3ccccc3n3c1c1c2c2ccccc2n1C1CCC3O1` : reported residual activity = ?
Key: 0.194%

Exercise: What would you report for `CC(=O)c1ccc(N2CCOCC2)cc1O` ?
Key: 102%

Exercise: Would you mind doing `CC[n+]1c(/C=C/N(C)c2ccccc2)n(-c2ccccc2)c2ccc(-c3nc4ccccc4s3)cc21` as well?
Key: 98.6%

Exercise: Same thing, different compound: `CCN(CC)C(=O)c1ccc(Nc2nc(OCC3CCCCC3)c3nc[nH]c3n2)cc1`
Key: 10.3%

Exercise: And the next one, `Cc1ccc(S(=O)(=O)/C=C/C#N)cc1` ?
Key: 100%

Exercise: For `N#C/C(=C(/N)Sc1ccc(N)cc1)c1ccccc1C(F)(F)F` then?
Key: 107%

###

Molecular target: DYRK1B (human) (UniProt Q9Y463)
Sequence (Q9Y463 whole entry, looked up): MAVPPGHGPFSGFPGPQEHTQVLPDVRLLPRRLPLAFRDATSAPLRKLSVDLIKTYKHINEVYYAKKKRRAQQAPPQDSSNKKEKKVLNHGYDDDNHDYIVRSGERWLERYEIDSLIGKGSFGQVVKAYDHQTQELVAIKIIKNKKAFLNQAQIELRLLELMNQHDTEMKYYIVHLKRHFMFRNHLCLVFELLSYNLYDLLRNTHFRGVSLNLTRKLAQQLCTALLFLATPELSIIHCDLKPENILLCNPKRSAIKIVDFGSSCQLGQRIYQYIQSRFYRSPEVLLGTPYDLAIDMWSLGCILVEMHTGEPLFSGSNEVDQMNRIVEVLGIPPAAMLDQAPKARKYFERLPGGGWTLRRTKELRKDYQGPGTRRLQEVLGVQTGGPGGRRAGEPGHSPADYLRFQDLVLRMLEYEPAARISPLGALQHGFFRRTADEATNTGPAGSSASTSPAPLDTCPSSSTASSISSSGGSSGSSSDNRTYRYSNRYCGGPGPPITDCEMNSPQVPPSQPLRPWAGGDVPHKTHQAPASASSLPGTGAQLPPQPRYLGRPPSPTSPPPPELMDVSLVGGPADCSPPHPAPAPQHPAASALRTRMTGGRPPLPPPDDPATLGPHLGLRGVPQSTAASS
Test: radiometric filter-binding kinase assay, Kinase HotSpot
Conditions: compound 0.5 µM; ATP 10 µM
READOUT: residual activity (%)
Kindly answer with a numeric value in %, unit omitted.

// worked examples, residual activity included
1. c1ccc(-c2n[nH]cc2-c2ccnc3ccccc23)nc1 = 102
2. O=C1NC(=O)C(c2cn(CCCn3ccnc3)c3ccccc23)=C1Nc1ccccc1 = 56.3
3. COc1cc2ncnc(Nc3cccc(Cl)c3)c2cc1OC = 104
4. Cc1ccc(NC2=CC(=O)c3sc(C)nc3C2=O)cc1 = 94.6
5. O=C(Nc1cccc(Nc2nccc(Nc3cccc(C(F)(F)F)c3)n2)c1)C1CC1 = 96.3
6. O=S(=O)(c1cccc2cnccc12)N1CCCNCC1 = 96.3

Exercise: Return reported residual activity; argument: `Cc1ccc(Nc2nccc(N(C)c3ccc4c(C)n(C)nc4c3)n2)cc1S(N)(=O)=O`
Key: 93.3

Exercise: `Oc1cccc(-c2nc(N3CCOCC3)c3oc4ncccc4c3n2)c1` ?
Key: 98.9

Exercise: What do we get for `CC(=O)c1ccc(N2CCOCC2)cc1O` ?
Key: 99.9

Exercise: Then what about the molecule `COc1ccc(COc2ccc(Cc3cnc(N)nc3N)cc2OC)cc1` ?
Key: 104

Exercise: Follow-up item: `CCOC(=O)c1c(C)[nH]c(/C=C2\C(=O)Nc3ccccc32)c1C`
Key: 105

Exercise: Also check `Nc1ncnc2c1c(-c1ccc(Oc3ccccc3)cc1)cn2C1CCCC1`
Key: 92.2

Exercise: Try this molecule too: `CNc1cc2c(Nc3cccc(Br)c3)ncnc2cn1`
Key: 92.3

###

Molecular target: OXSR1 (human) (UniProt O95747)
Sequence (O95747 whole entry, looked up): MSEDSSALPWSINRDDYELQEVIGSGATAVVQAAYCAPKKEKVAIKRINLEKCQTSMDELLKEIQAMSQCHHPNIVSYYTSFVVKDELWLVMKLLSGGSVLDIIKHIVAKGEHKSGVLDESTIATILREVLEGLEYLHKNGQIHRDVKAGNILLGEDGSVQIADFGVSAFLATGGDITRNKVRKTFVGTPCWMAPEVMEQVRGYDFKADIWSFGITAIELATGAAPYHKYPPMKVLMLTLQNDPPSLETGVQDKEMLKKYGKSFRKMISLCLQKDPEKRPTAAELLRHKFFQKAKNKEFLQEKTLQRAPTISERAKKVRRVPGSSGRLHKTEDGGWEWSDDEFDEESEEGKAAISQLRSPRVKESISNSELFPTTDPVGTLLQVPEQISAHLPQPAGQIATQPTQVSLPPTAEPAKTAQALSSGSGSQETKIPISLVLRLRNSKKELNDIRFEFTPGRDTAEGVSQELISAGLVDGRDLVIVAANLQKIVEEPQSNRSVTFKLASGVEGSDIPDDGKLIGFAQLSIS
Assay: radiometric filter-binding kinase assay, Kinase HotSpot
Conditions: compound 0.5 µM; ATP 10 µM
Recorded residual activity values for a group of compounds are listed next.
A number alone suffices; assume %.

1. Cc1ccc(NC2=CC(=O)c3sc(C)nc3C2=O)cc1 = 86.6

Exercise: Data request, read-out residual activity, for `CCC(=O)Nc1ccc2ncnc(Nc3cccc(Br)c3)c2c1`
Key: 107

Exercise: What do we get for `CCN(CC)CCNC(=O)c1c(C)[nH]c(/C=C2\C(=O)Nc3ccc(Cl)cc32)c1C` ?
Key: 80.1

Exercise: Then this compound: `Cc1ccc(S(=O)(=O)/C=C/C#N)cc1`
Key: 103

Exercise: Consider next the compound `O=C1NC(=O)c2c1c1c3ccccc3n3c1c1c2c2ccccc2n1C1CCC3O1` in the same way.
Key: 92.4

Exercise: Queued: `O=C(Nc1cccc(Nc2nccc(Nc3cccc(C(F)(F)F)c3)n2)c1)C1CC1`
Key: 78.9

Exercise: Do the same for `c1ccc(-c2n[nH]cc2-c2ccnc3ccccc23)nc1` please
Key: 85.3

Exercise: Can you handle `O=C1Nc2ccc(Cl)cc2/C1=C/c1cc(Cl)c(O)c(Cl)c1` next?
Key: 91.6

Exercise: Queued: `CCN(CC)C(=O)c1ccc(Nc2nc(OCC3CCCCC3)c3nc[nH]c3n2)cc1`
Key: 99

Exercise: Also `CCCC(=O)Oc1ccc2[nH]c(C(=O)c3cc4ccccc4[nH]3)cc2c1` , if possible.
Key: 92.4

Exercise: Item: `CNc1cc2c(Nc3cccc(Br)c3)ncnc2cn1`
Key: 88.3

###

Molecular target: CDK9 CCNK (human) (UniProt O75909+P50750)
Sequence (O75909 whole entry, looked up): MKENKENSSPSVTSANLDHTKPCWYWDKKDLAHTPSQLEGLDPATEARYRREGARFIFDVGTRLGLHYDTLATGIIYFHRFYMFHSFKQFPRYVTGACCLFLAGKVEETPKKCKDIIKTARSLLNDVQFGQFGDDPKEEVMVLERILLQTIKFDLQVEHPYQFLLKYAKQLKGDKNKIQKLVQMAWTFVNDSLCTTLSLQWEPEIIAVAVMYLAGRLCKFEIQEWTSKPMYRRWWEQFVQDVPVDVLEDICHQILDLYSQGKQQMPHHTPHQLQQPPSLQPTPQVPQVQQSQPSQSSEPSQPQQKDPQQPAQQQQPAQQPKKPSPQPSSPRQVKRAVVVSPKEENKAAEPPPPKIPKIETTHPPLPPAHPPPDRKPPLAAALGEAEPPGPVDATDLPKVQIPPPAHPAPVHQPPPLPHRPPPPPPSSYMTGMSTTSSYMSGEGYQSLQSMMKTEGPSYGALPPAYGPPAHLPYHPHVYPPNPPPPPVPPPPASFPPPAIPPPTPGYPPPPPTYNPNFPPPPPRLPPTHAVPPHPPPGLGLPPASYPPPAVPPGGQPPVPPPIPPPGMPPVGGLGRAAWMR
Sequence (P50750 whole entry, looked up): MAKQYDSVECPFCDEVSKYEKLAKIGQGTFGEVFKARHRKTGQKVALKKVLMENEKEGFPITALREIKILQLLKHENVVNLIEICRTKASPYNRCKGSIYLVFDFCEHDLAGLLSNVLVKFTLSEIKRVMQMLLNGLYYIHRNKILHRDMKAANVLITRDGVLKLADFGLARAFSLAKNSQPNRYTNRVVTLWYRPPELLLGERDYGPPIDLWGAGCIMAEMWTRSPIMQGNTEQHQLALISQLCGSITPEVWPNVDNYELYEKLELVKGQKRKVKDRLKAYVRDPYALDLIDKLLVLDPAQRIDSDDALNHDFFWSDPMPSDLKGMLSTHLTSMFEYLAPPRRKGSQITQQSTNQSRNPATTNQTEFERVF
Test: radiometric filter-binding kinase assay, Kinase HotSpot
Conditions: compound 0.5 µM; ATP 10 µM
This listing pairs molecules with measured residual activity.
Value expressed in %; do not type the unit.

Solved entries:
1. CCN(CC)CCNC(=O)c1c(C)[nH]c(/C=C2\C(=O)Nc3ccc(Cl)cc32)c1C = 40.1
2. CO[C@H]1CC2CC[C@@H](C)[C@@](O)(O2)C(=O)C(=O)N2CCCC[C@H]2C(=O)OC([C@H](C)C[C@@H]2CC[C@@H](O)[C@H](OC)C2)CC(=O)[C@H](C)/C=C(\C)[C@@H](O)[C@@H](OC)C(=O)[C@H](C)C[C@H](C)/C=C/C=C/C=C/1C (stereo partly drawn) = 106
3. Nc1cccc(-c2cc3c(Oc4cccc(O)c4)ncnc3[nH]2)c1 = 58.4
4. CCOC(=O)c1c(C)[nH]c(/C=C2\C(=O)Nc3ccccc32)c1C = 97.5

Exercise: // query residual activity value for entry `Cc1[nH]c(/C=C2\C(=O)Nc3ccc(S(=O)(=O)N(C)c4cccc(Cl)c4)cc32)c(C)c1C(=O)N1CCN(C)CC1`
Key: 90.2

Exercise: Now consider `N#CC(C#N)=C(N)/C(C#N)=C/c1ccc(O)cc1` and answer again.
Key: 100

Exercise: Another: `CCN(CC)CCNC(=O)c1c(C)[nH]c(/C=C2\C(=O)Nc3ccc(F)cc32)c1C`
Key: 80.2

Exercise: Continue with `Cc1ccc(NC2=CC(=O)c3sc(C)nc3C2=O)cc1`
Key: 84.4

Exercise: Can you check `CC#CC(=O)Nc1cc2c(Nc3ccc(F)c(Cl)c3)ncnc2cn1` next?
Key: 98.4

Exercise: What would you report for `O=c1cc(N2CCOCC2)oc2c1ccc1ccccc12` ?
Key: 99.9

Exercise: Item: `O=S(=O)(c1cccc2cnccc12)N1CCCNCC1`
Key: 86

Exercise: What do you have for `CCC(=O)Nc1ccc2ncnc(Nc3cccc(Br)c3)c2c1` ?
Key: 94.1

Exercise: Query `COC[C@H]1OC(=O)c2coc3c2[C@@]1(C)C1=C(C3=O)[C@@H]2CCC(=O)[C@@]2(C)C[C@H]1OC(C)=O` next
Key: 107

Exercise: What do you get for `CC[n+]1c(/C=C/N(C)c2ccccc2)n(-c2ccccc2)c2ccc(-c3nc4ccccc4s3)cc21` ?
Key: 106
